Hey, just so you know, these numbers are from patent US8501754B2.

# test.target: Recombinant human HSP90a (Homo sapiens, UniProt P07900)
# assay.overview: radioligand filter binding test ([3H]17AAG competition) for HSP90 inhibition
# experimental.context: competition with [3H]17AAG 0.08 μM, HSP90 1.5 μg/assay, 22° C., 30 min
Measured IC50 by item

[
  {
    "compound": "CCNCc1ccccc1-c1ccc2nc(N)nc(C(=O)N3Cc4ccccc4C3)c2c1 [Compound A978]",
    "IC50": "10 to 1000 nM"
  }
]

Problem: Tell me measured IC50 for Nc1nc(C(=O)N2Cc3ccccc3C2)c2cc(-c3ccccc3CN3CCOCC3)ccc2n1 [Compound A974] please.
Solution: 10 to 1000 nM

Problem: Tell me measured IC50 for CN1CCN(c2ccc3nc(N)nc(C(=O)N4Cc5ccccc5C4)c3c2)CC1 [Compound A941] please.
Solution: 1000 to 10000 nM

Problem: Tell me measured IC50 for CN1CCN(S(=O)(=O)c2ccccc2-c2ccc3nc(N)nc(C(=O)N4Cc5ccccc5C4)c3c2)CC1 [Compound A980] please.
Solution: 10 to 1000 nM

Problem: Tell me measured IC50 for COc1ccc(Cl)cc1CN(C)C(=O)c1nc(N)nc2ccccc12 [Compound A72] please.
Solution: > 10000 nM

Problem: Tell me measured IC50 for CCc1ccc2nc(N)nc(C(=O)N(CC)CC)c2c1 [Compound A98] please.
Solution: 1000 to 10000 nM

Problem: Tell me measured IC50 for CCN(CC)C(=O)c1cccc(-c2ccc3nc(N)nc(C(=O)N4Cc5ccccc5C4)c3c2)c1 [Compound A931] please.
Solution: 10 to 1000 nM
